Target: hGcgR (Homo sapiens, UniProt P47871)
Sequence (P47871 26-477): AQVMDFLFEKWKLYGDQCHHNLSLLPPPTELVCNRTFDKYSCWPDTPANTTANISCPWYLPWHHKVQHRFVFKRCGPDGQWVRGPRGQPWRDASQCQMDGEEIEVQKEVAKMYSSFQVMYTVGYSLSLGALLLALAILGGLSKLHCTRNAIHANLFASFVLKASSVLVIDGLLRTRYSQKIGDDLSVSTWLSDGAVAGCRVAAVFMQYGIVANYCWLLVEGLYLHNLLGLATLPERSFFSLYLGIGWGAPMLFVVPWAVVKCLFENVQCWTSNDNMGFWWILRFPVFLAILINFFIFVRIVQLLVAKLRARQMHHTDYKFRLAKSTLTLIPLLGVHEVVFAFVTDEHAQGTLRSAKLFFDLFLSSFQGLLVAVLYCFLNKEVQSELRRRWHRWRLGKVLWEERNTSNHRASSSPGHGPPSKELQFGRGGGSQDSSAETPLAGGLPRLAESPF
Test: Functional cAMP activation in the presence of 0.1% casein (no HSA);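 further: intracellular cAMP rise after 30 min at 37 °C, read by HTRF against a cAMP standard curve, scaled from buffer only (0%) to maximal control ligand response (100%)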
Type: cell-based
Conditions: in the presence of 0.1% casein (no HSA); geometric mean of relative EC50; read-out: Relative cAMP EC50, hGcgR
Starred links: 1 amine or outer side, 2 acyl side, 3 side chain; linkers in the order of their positions; H or OH if unused. Non-standard residues stand in square brackets, D forms with d. Groups on a side chain read outwards from the residue. No end group written: not given here. *: point of attachment. C18 diacid = O=C(O)CCCCCCCCCCCCCCCCC(=O)*; αMePhe(2-F) = C[C@](N)(Cc1ccccc1F)C(=O)O; γGlu = O=C(O)[C@H](CCC(=O)[*:2])N[*:1]; αMe4Pal = C[C@](N)(Cc1ccncc1)C(=O)O; αMeY = C[C@](N)(Cc1ccc(O)cc1)C(=O)O; 4Pal = N[C@@H](Cc1ccncc1)C(=O)O; αMeL = CC(C)C[C@](C)(N)C(=O)O; αMeS = C[C@](N)(CO)C(=O)O; Orn = NCCC[C@H](N)C(=O)O; AEEA = NCCOCCOCC(=O)O; Aib = CC(C)(N)C(=O)O
MEASURED PROPERTY: EC50 (nM)
The reply should contain only the number, in nM.

H-Y[Aib]QGT[αMePhe(2-F)]TSD[4Pal][αMeS]I[αMeL]LD[Orn]K([AEEA-γGlu-C18 diacid])AA[Aib]EFI[dE][αMeY]LIEGGPSSGAPPPSGEE-NH2 [Example 703] = 1.56
H-Y[Aib]QGT[αMePhe(2-F)]TSD[4Pal]SI[αMeL]LDKK([γGlu-γGlu-C18 diacid])AQ[Aib][Orn]FIEYLSEGGPSSGEPPPSGSEE-NH2 [Example 637] = 11.7

Give the observed EC50 of H-Y[Aib]QGT[αMePhe(2-F)]TSD[4Pal]SI[αMeL]LDKK([γGlu-γGlu-C18 diacid])AQ[Aib][Orn]FIEYLTEGGPSSGEPPPEGSEE-NH2 [Example 652] for hGcgR (Homo sapiens, UniProt P47871).
15.3

Give the observed EC50 of H-Y[Aib]QGT[αMePhe(2-F)]TSD[4Pal]SI[αMeL]LDKK([γGlu-γGlu-C18 diacid])AQ[Aib]AFIEYLEEGGPSSGEPPPSGSEE-NH2 [Example 630] for hGcgR (Homo sapiens, UniProt P47871).
8.07

Give the observed EC50 of H-Y[Aib]QGT[αMePhe(2-F)]TSD[4Pal]SI[αMeL]LDKK([γGlu-γGlu-C18 diacid])AQ[Aib][Orn]FIEYLAEGGPSSGEPPPEGSEE-NH2 [Example 650] for hGcgR (Homo sapiens, UniProt P47871).
16.2

Give the observed EC50 of H-Y[Aib]QGT[αMePhe(2-F)]TSD[4Pal]SI[αMeL]LDKK([γGlu-γGlu-C18 diacid])AQ[Aib][Orn]FIEYLTEGGPSSGEPPPSGSEE-NH2 [Example 638] for hGcgR (Homo sapiens, UniProt P47871).
14

Give the observed EC50 of H-Y[Aib]QGT[αMePhe(2-F)]TSDYSI[αMeL]LDKK([AEEA-γGlu-C18 diacid])AQ[Aib]AFIEYLLETGPSSGAPPPSEG-NH2 [Example 417] for hGcgR (Homo sapiens, UniProt P47871).
2.83

Give the observed EC50 of Y[Aib]QGT[αMePhe(2-F)]TSD[4Pal][αMeS]ILLD[Orn]K([γGlu-γGlu-C18 diacid])AQ[Aib][Orn]FI[dE]YLIEGGPSSGEPPPSETE-NH2 [Example 555] for hGcgR (Homo sapiens, UniProt P47871).
3.56

Give the observed EC50 of H-Y[Aib]QGT[αMePhe(2-F)]TSD[4Pal]SI[αMeL]LDKK([γGlu-γGlu-C18 diacid])AQ[Aib][Orn]FIEYLAEGGPSSGEPPPSGSEE-NH2 [Example 636] for hGcgR (Homo sapiens, UniProt P47871).
9.28

Give the observed EC50 of H-Y[Aib]QGT[αMePhe(2-F)]TSD[4Pal]SI[αMeL]LDKK([γGlu-γGlu-C18 diacid])AQ[Aib][Orn]FIEYLQEGGPSSGEPPPEGSEE-NH2 [Example 653] for hGcgR (Homo sapiens, UniProt P47871).
7.29

Give the observed EC50 of Y[Aib]QGT[αMePhe(2-F)]TSD[4Pal][αMeS]I[αMeL]LD[Orn]K([AEEA-γGlu-C18 diacid])AA[Aib]EFI[dE][αMeY]LIEGGPSSGEPPPSGTE-NH2 [Example 719] for hGcgR (Homo sapiens, UniProt P47871).
1.44

Give the observed EC50 of H-Y[Aib]QGT[αMePhe(2-F)]TSD[4Pal]SI[αMeL]LDKK([γGlu-γGlu-C18 diacid])AQ[Aib][Orn]FIEYLEEGGPSSGEPPPSGSEE-NH2 [Example 635] for hGcgR (Homo sapiens, UniProt P47871).
7.09

Give the observed EC50 of H-Y[Aib]QGT[αMePhe(2-F)]TSD[4Pal]SI[αMeL]LDKK([γGlu-γGlu-C18 diacid])AQ[Aib]AFIEYLQEGGPSSGEPPPSGSEE-NH2 [Example 634] for hGcgR (Homo sapiens, UniProt P47871).
6.49

Give the observed EC50 of H-Y[Aib]QGT[αMePhe(2-F)]TSD[4Pal]SI[αMeL]LDKK([γGlu-γGlu-C18 diacid])AQ[Aib][Orn]FIEYLSEGGPSSGEPPPEGSEE-NH2 [Example 651] for hGcgR (Homo sapiens, UniProt P47871).
10.7

Give the observed EC50 of H-Y[Aib]QGT[αMePhe(2-F)]TSD[4Pal]SI[αMeL]LDKK([γGlu-γGlu-C18 diacid])AQ[Aib]AFIEYLTEGGPSSGEPPPSGSEE-NH2 [Example 633] for hGcgR (Homo sapiens, UniProt P47871).
10.2

Give the observed EC50 of H-Y[Aib]QGT[αMePhe(2-F)]TSD[4Pal]SI[αMeL]LDKK([γGlu-γGlu-C18 diacid])AQ[Aib]AFIEYLSEGGPSSGEPPPSGSEE-NH2 [Example 632] for hGcgR (Homo sapiens, UniProt P47871).
13.5

Give the observed EC50 of Y[Aib]QGT[αMePhe(2-F)]TSD[4Pal]SI[αMeL]LD[Orn]K([AEEA-γGlu-C18 diacid])AQ[αMe4Pal][Orn]FI[dE][αMeY]LIEGGPSSGEPPPEGEG[dE]-NH2 [Example 692] for hGcgR (Homo sapiens, UniProt P47871).
2.14
